Target: 17β-HSD3 (Homo sapiens)
Construct: expressed in transfected cells; host or cells: MCF-7 cells stably expressing 17β-HSD3
Sequence (P37058 whole entry): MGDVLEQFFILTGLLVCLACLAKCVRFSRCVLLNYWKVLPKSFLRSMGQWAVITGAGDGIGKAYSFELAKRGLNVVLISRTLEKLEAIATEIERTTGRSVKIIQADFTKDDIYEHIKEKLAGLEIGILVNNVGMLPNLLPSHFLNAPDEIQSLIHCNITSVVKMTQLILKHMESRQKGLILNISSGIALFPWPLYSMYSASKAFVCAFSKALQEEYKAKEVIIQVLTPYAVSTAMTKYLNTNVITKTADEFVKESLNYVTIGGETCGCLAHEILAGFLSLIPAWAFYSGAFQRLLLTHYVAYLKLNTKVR
Experimental details: Inhibition of 17β-HSD3 in MCF-7 cell lines stably expressing the enzyme (HPLC, tritium labeled androstenedione)
Format: cell-based
Condition summary: MCF7; 1 µM; MCF-7 cells expressing 17β-HSD3, androstenedione 2 nM
We use 20% as the dividing line for inhibition at 1 µM: on or above the line is Yes, below is No.

{"Molecule": "CCCCn1cc(CCCC2CC(=O)[C@@]3(C)CC[C@@H]4c5ccc(O)cc5CC[C@H]4[C@H]23)nn1 (stereo partly shown)", "Answer label": "Yes"}
{"Molecule": "C[C@]12CC[C@@H]3c4ccc(O)cc4CC[C@H]3[C@@H]1[C@H](CCn1cc(-c3ccccc3C(F)(F)F)nn1)CC2=O", "Answer label": "No"}
{"Molecule": "C[C@]12CC[C@@H]3c4ccc(O)cc4CC[C@H]3[C@@H]1[C@H](CCCn1cc(CCc3ccccc3)nn1)CC2=O", "Answer label": "No"}
{"Molecule": "C[C@]12CC[C@@H]3c4ccc(O)cc4CC[C@H]3[C@@H]1[C@H](CCCc1cn(-c3ccc(F)cc3F)nn1)CC2=O", "Answer label": "Yes"}
{"Molecule": "CC(C)Cc1cn(CCC[C@@H]2CC(=O)[C@@]3(C)CC[C@@H]4c5ccc(O)cc5CC[C@H]4[C@H]23)nn1", "Answer label": "Yes"}

inhibition at 1 µM >= 20% for C[C@]12CC[C@@H]3c4ccc(O)cc4CC[C@H]3[C@@H]1[C@H](CCn1cc(-c3ccccc3F)nn1)CC2=O ? No

inhibition at 1 µM >= 20% for CC(C)CCc1cn(CC[C@@H]2CC(=O)[C@@]3(C)CC[C@@H]4c5ccc(O)cc5CC[C@H]4[C@H]23)nn1 ? No
